Each recorded value in this set is attributed to patent US20180289692A1.

Would you mind telling me the reported IP10 of each entry?
Tested on: human PBMCs
Experiment: Cytokine production by human PBMCs treated with ODNs, MagPix Multi-Plex
Assay type: cell-based
Conditions: low-dose ODN 0.1 μM, human PBMC, 24 hrs
Oligonucleotides are written 5' to 3', each unit as a sugar letter and its base; * is a phosphorothioate linkage, no mark a phosphodiester; rarer units and linkages stand in square brackets, end groups in braces. Plain capitals give the bases only. d = 2'-deoxy (DNA)
Just the number in fold change, nothing appended.

Which measured IP10 value corresponds to ODN301C: 5′-GTAGCCCCATCACCCAGCAGC-3′, fully PS, GC-containing (DNA dG*dT*dA*dG*dC*dC*dC*dC*dA*dT*dC*dA*dC*dC*dC*dA*dG*dC*dA*dG*dC) ?
1.1

Using the record for ODN150C: 5′-G*G*A*ACAGTTAGTCCATa*G*G*C-3′, PO except * = PS; control lacking CG-dinucleotide sequences (DNA GGAACAGTTAGTCCATGGC; listed as DNA, chemistry not fully specified) , report its IP10.
1

What value of IP10 has been recorded for this entry: ODN302: 5′-GTCGCTCTTCTCCTCCGCCAG-3′, fully PS; scrambled (non-SMAD7 AON) control sequence with two CG sequences (DNA dG*dT*dC*dG*dC*dT*dC*dT*dT*dC*dT*dC*dC*dT*dC*dC*dG*dC*dC*dA*dG)
13.9
